Hey, just so you know, these numbers are from the supplement of paper PMC6555819.

Tested on: RARa:RXR (NR concentration 270 nM, RXRa partner concentration 90 nM)
Test: PBM binding z-score (relative to random genomic background probes); higher = stronger binding; sequences stand for … in GC…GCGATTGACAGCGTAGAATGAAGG
Each entry gets Not met if its PBM binding z-score stays under 2, and Met if its PBM binding z-score is 2 or above.

Solved cases (10 shown):
> print(dat)
                      primary.sequence  category
 1  ACTTACGGGTCAATGAGGTTATAGCACGCGTATA       Met
 2  GCAGACGGGTGAAACGCAGGTAACTCAGGGTGGC   Not met
 3  TCTTGTAGATCACCAGGTTAAGAAAGCTGGCCAA   Not met
 4  CGTCCAAGGTCATAGGACGTCAGTGAAGACAGAT       Met
 5  GCGACTGGGGCAAAGCAGTTTACCATAAGGTTGG   Not met
 6  GTACCAAGGTGAATAAGTCGTTGATGAGTAGGCG   Not met
 7  AGAACGAGGGAAATGAGTTGATAGCACGGGTGGC   Not met
 8  CTACCAAGGTGAACAAGGTCGTAGATTACTATTC       Met
 9  TCGAGTAGGTTACCAATGGGACATTCAGCTTTCT   Not met
10  CCTACTTGGCCATTCAGAGGTCATTGATCATATG       Met

QUERY: Does the reported PBM binding z-score for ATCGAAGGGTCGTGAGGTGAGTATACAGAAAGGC fall at or above the 2 mark?
RESULT: Met

QUERY: # bool: PBM binding z-score of CCCAGTTGGTCAAGGTCACACACGCTATAGGTAC >= 2
RESULT: Met

QUERY: Determine whether measured PBM binding z-score meets or exceeds 2 for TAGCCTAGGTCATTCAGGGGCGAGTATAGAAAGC
RESULT: Met

QUERY: Check if PBM binding z-score >= 2 (inclusive). Item: ATCGAAAGGTCGTGAGGTGGGTATACAGAAAGGC
RESULT: Met

QUERY: Does PBM binding z-score meet or surpass 2 for CCTACTGGGCCATAGGTCATTGATTCCAATGCTC ?
RESULT: Met

QUERY: Given CCTCCTGGGCCAAGGTCATTGATCAGTCAAAGCA , state whether its PBM binding z-score is at least 2.
RESULT: Met

QUERY: Say whether ATATTTAGGTTAAGGGTCATTCAGGTTGGTTCGC shows PBM binding z-score of 2 or more.
RESULT: Met

QUERY: Entry AATACAGGGTCATCGTAGGCCTGAGTACGCACAG : is its PBM binding z-score no less than 2?
RESULT: Met

QUERY: Exam item: decide whether the reported PBM binding z-score for CTCGAAAGGTTGTGCTCAGGTGAGTATACCAAAC is at least 2.
RESULT: Not met

---

System: VDR homodimer (NR concentration 270 nM)
Experiment: PBM binding z-score (relative to random genomic background probes); higher = stronger binding; sequences stand for … in GC…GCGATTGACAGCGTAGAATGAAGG
assay endpoint: PBM binding z-score

> print(dat)
                     primary.sequence       assay.endpoint  result.value
1  TCTCGGAGGACACGAAGGTGAGAGCTTTCCAGAG  PBM binding z-score        -0.501

# return PBM binding z-score for each item in the list
1. TCATATATGTAAAGGTGAAAGTCGAACGATATGA
2. TAGCTTAGGTCAGATCGGGCCAGTATACGCTATA
3. ATCTCTAGGTAAGCAAGTTCAGTGAATGCCGAAC

RESULT:
1. 0.112
2. -0.357
3. 2.32

Please give PBM binding z-score for each item listed below.
1. GCTCGGAGAACAAGGTCAGAGCTTTGTCCGTAGA
2. CCTATTAGTTGAACATAAGGGCAACCGAAGCTCG

RESULT:
1: 0.151; 2: 0.571
